System: Trichophyton mentagrophytes
assay-overview: Antifungal activity against Trichophyton mentagrophytes
Format: functional
quantity-name: MIC

In [3]: df
Out[3]:
                                   compound              measured_target  value_reported
0  CCCCCCCCCCCCCC[P+](Cc1ccccc1O)(c1ccccc1)c1ccccc1.[Cl-]  Trichophyton mentagrophytes          478 µM
1  CCCCCCCCCC[P+](Cc1ccccc1O)(c1ccccc1)c1ccccc1.[Cl-]  Trichophyton mentagrophytes         16.6 µM
2  CCCCCC[P+](Cc1ccccc1O)(c1ccccc1)c1ccccc1.[Cl-]  Trichophyton mentagrophytes          606 µM
3  CC(=O)N1CCN(c2ccc(OCC3COC(Cn4ccnc4)(c4ccc(Cl)cc4Cl)O3)cc2)CC1 (centres undefined)  Trichophyton mentagrophytes          7.3 µM
